Below: a set of entries, each annotated with reported cell viability.
Test system: Vero E6
method: cell viability relative to DMSO; higher = less toxic
assay context: 72 h; 1 nM
value type: cell viability (%)

INSERT INTO measurements (molecule, system_tested, experimental_value) VALUES
  ('CC(C)(CO)Cc1cc(C(C)(C)C)c(O)c(C(C)(C)C)c1 [CGP-7930]', 'Vero E6', 108),
  ('c1ccc2sc(SNC3CCCCC3)nc2c1 [N-cyclohexyl-2-benzothiazolesulfenamide]', 'Vero E6', 110),
  ('COc1cc(Nc2ncc(F)c(Nc3ccc4c(n3)NC(=O)C(C)(C)O4)n2)cc(OC)c1OC [R406]', 'Vero E6', 100),
  ('CN(C)CCC=C1c2ccccc2CCc2ccccc21 [amitriptyline]', 'Vero E6', 102),
  ('COc1cccc(NC(=O)/C=C/c2ccc(Cl)cc2)c1', 'Vero E6', 102),
  ('O=C(NC1CCN(Cc2ccccc2)CC1)c1ccc(I)cc1 [4-IBP]', 'Vero E6', 109),
  ('CC(c1cc2ccccc2s1)N(O)C(N)=O (configuration not stated) [zileuton]', 'Vero E6', 103),
  ('S=C(S)N1CCCC1 [pyrrolidine-dithiocarbamate]', 'Vero E6', 102),
  ('COc1cc(OC)c(/C=C/S(=O)(=O)Cc2ccc(OC)c(OP(=O)(O)O)c2)c(OC)c1 [briciclib]', 'Vero E6', 95.9),
  ('CCCCCCCCCCCCCCCC[n+]1ccccc1 [cetylpyridinium]', 'Vero E6', 96.2),
  ('C#C[C@]1(OC(C)=O)CC[C@H]2[C@@H]3CCC4=CC(=O)CC[C@@H]4[C@H]3CC[C@@]21C [norethindrone-acetate]', 'Vero E6', 104),
  ('C[C@@H](c1ccc2nccn2c1)n1nnc2ncc(-c3cnn(C)c3)nc21 [savolitinib]', 'Vero E6', 102);
